System: THRa:RXRa (NR concentration 90 nM, RXRa partner concentration 90 nM)
Assay: PBM binding z-score (relative to random genomic background probes); higher = stronger binding; sequences stand for … in GC…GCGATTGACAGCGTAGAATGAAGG
Below, each of the sequences is paired with its reported PBM binding z-score value.
Enter the number alone.

Guide cases for PBM binding z-score, answers given:
[
  {
    "CHAIN SEQUENCE": "TAGCCTAAGTCATTCAGGGGCCAGTATAGAAAGC",
    "TEST TARGET": "THRa:RXRa (NR concentration 90 nM, RXRa partner concentration 90 nM)",
    "MEASURED NUMBER": 0.835
  },
  {
    "CHAIN SEQUENCE": "CGTCCAAGGTCAGAGAGGTCAATGAATGCCGAGT",
    "TEST TARGET": "THRa:RXRa (NR concentration 90 nM, RXRa partner concentration 90 nM)",
    "MEASURED NUMBER": 4.53
  },
  {
    "CHAIN SEQUENCE": "TTACCAAGGTGAAAGGTCGTTGATGCACGCCTTG",
    "TEST TARGET": "THRa:RXRa (NR concentration 90 nM, RXRa partner concentration 90 nM)",
    "MEASURED NUMBER": 3.23
  },
  {
    "CHAIN SEQUENCE": "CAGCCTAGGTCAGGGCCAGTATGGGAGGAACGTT",
    "TEST TARGET": "THRa:RXRa (NR concentration 90 nM, RXRa partner concentration 90 nM)",
    "MEASURED NUMBER": 1.95
  },
  {
    "CHAIN SEQUENCE": "TCAGACAGGTGCAGGTAACTCAGGTACGCAGTCG",
    "TEST TARGET": "THRa:RXRa (NR concentration 90 nM, RXRa partner concentration 90 nM)",
    "MEASURED NUMBER": 0.824
  },
  {
    "CHAIN SEQUENCE": "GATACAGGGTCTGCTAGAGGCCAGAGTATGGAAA",
    "TEST TARGET": "THRa:RXRa (NR concentration 90 nM, RXRa partner concentration 90 nM)",
    "MEASURED NUMBER": -0.093
  },
  {
    "CHAIN SEQUENCE": "TCTAGTTGGTCAACGGTCACACACTCGAAATGCG",
    "TEST TARGET": "THRa:RXRa (NR concentration 90 nM, RXRa partner concentration 90 nM)",
    "MEASURED NUMBER": 0.548
  },
  {
    "CHAIN SEQUENCE": "ATCGAAAGGTCGACGGGGTGAGTATACACCGTTT",
    "TEST TARGET": "THRa:RXRa (NR concentration 90 nM, RXRa partner concentration 90 nM)",
    "MEASURED NUMBER": 3.57
  },
  {
    "CHAIN SEQUENCE": "TGAATGATGTTAAAGATCAGGGAACGTGGCGTCG",
    "TEST TARGET": "THRa:RXRa (NR concentration 90 nM, RXRa partner concentration 90 nM)",
    "MEASURED NUMBER": -0.238
  },
  {
    "CHAIN SEQUENCE": "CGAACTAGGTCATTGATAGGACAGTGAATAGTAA",
    "TEST TARGET": "THRa:RXRa (NR concentration 90 nM, RXRa partner concentration 90 nM)",
    "MEASURED NUMBER": 2.61
  }
]

[ask] // fetch PBM binding z-score given entry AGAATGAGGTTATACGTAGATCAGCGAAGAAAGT
[reply] 1.99

[ask] Item TCTAGTAGTTGATTAGGGCAACCGAAACAGCGGA : provide PBM binding z-score
[reply] 0.48

[ask] Supply measured PBM binding z-score of CGTCAAAGTTCAACTAAGGTAACGGAAAGCACGC in your reply.
[reply] 5.24

[ask] Please give the documented PBM binding z-score of CCTAGCATGCCAATCTGGGTCACTCAAGGCTTGA
[reply] 2.93

[ask] Report measured PBM binding z-score; entry is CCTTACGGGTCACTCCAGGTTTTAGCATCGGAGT
[reply] 4.31

[ask] Consider the sequence TCTAGCAGGCCAGAAGGTCACTCAAGAGGTACGG and give its recorded PBM binding z-score.
[reply] 2.28

Data provenance: the supplement of paper PMC6555819
